- PROCEDURE TEXT: qHTS assay to identify small molecule antagonists of the glucocorticoid receptor (GR) signaling pathway - cell viability counter screen (AID 720693); also: nearly all actives have a fitted effect of over 55% in size
- ASSAY CONTEXT: GR-bla HeLa viability, CellTiter-Glo luminescence, 18 h, with 5 nM dexamethasone present; series mostly up to 58.5 µM
Records with an inconclusive call do not appear. Active and inactive are the calls of the source. Calls follow the shape of the dose curve; as a rule, active = well fitted cell-killing curve with a large enough effect in the repeat runs; inconclusive = weak or mixed curves, or effect the other way; inactive = no such curve, though single readings can be large or run the other way.
Bench note: report the call from active, inactive

query: Tell me the recorded outcome of this test for [O-][n+]1ccc(Cl)cc1 .
result: inactive

query: Tell me the recorded outcome of this test for CCCC(=O)OCCC(C)C .
result: inactive

query: Tell me the recorded outcome of this test for O=C1c2ccccc2C(=O)C1c1ccc2ccccc2n1 .
result: inactive

query: Tell me the recorded outcome of this test for CC(C)=CCC/C(C)=C/C=N/O .
result: inactive

query: Tell me the recorded outcome of this test for Cc1c(Cl)cccc1[N+](=O)[O-] .
result: inactive

query: Tell me the recorded outcome of this test for O=C1CCCN1CCO .
result: inactive

query: Tell me the recorded outcome of this test for CC1(COc2ccc(CC3SC(=O)NC3=O)cc2)CCCCC1 (centres undefined) .
result: active

query: Tell me the recorded outcome of this test for CC(=O)S[C@H](C(=O)N[C@H]1Cc2ccccc2[C@H]2CCC[C@@H](C(=O)O)N2C1=O)C(C)C .
result: inactive

query: Tell me the recorded outcome of this test for CCCc1nc(C)c2c(=O)[nH]c(-c3cc(S(=O)(=O)N4CCN(CC)CC4)ccc3OCC)nn12 .
result: inactive
